molecular target: Inhibitor of nuclear factor kappa-B kinase subunit alpha (Homo sapiens); test: Inhibition of IKK1-mediated phosphorylation of GST-IkappaBalpha fusion protein afterr 60 mins by fluorescence polarization assay
Sequence (O15111 whole entry, the tested form may be a part): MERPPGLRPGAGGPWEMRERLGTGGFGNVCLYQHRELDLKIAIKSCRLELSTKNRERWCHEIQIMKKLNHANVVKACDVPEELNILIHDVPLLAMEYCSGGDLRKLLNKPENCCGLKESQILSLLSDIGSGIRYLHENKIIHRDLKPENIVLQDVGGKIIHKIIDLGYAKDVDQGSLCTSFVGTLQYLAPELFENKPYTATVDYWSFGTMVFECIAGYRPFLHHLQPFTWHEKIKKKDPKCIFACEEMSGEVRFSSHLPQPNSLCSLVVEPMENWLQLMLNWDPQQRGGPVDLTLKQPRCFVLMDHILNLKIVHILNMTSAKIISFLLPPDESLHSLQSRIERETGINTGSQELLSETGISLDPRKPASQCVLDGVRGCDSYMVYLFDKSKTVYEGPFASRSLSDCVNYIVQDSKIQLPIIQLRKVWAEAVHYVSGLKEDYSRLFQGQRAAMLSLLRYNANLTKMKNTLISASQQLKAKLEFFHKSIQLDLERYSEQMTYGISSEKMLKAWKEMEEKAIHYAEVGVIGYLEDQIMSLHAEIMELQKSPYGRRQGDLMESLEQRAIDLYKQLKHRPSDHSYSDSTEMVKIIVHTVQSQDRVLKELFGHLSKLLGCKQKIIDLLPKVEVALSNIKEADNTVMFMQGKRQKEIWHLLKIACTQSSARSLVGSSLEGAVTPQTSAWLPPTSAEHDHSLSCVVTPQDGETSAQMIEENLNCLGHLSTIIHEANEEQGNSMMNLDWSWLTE
measure name: log10 IC50 (log10 of the value in µM)
A difference of one corresponds to tenfold IC50; all values are log10 with IC50 in µM.

CNc1nc2sc(-c3cccc(CNC(C)=O)c3)nc2c2c1ncn2C :: 0.28

// log10 IC50 lookup, key: CCNc1nc2sc(-c3ccc(F)cc3)nc2c2c1ncn2C
0.53

Also CNc1nc2sc(-c3ccc(F)cc3)nc2c2c1ncn2C ?
0.49

Also CNc1nc2sc(S(C)(=O)=O)nc2c2c1ncn2C ?
0.88

Also CNc1nc2sc(-c3cccc(CNS(C)(=O)=O)c3)nc2c2c1ncn2C ?
0.00

Also CNc1nc2oc(-c3ccccc3)nc2c2c1ncn2C ?
-0.57

Also CC(=O)NCCNc1nc2sc(-c3ccc(F)cc3)nc2c2c1ncn2C ?
0.70
